# System Tested: CDK9 (Homo sapiens, UniProt P50750)
# Construct: endogenous in cells; host or cells: MDA-MB-231
# Sequence (P50750 whole entry): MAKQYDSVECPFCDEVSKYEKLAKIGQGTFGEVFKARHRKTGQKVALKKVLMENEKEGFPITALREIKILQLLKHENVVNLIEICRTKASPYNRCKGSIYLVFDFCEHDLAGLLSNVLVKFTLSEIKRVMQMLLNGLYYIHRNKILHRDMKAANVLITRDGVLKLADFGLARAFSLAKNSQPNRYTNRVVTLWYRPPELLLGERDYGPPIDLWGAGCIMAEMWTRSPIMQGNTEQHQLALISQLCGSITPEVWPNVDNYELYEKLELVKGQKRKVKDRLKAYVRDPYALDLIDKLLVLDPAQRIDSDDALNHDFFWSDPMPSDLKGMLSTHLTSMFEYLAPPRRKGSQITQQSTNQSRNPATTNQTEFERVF
# Measurement Description: CDK protein degradation activity (Western blotting), CDK9
# Format: cell-based
# Stated Conditions: MDA-MB-231 cells, 0.1 μM, 16 hours, Western blot
Could you please report measured Enzyme degradation CDK9 (% remaining) @ 0.1 μM for the items listed next?

Completed entries (count: 4):
CC(=O)NC1CC(n2cnc3c(NCC4CCN(CC5CCN(C(=O)COc6cccc7c6C(=O)N([C@H]6CCC(=O)NC6=O)C7=O)CC5)CC4)ncnc32)C1 (some centres unmarked)	90%
Cc1cccc(C(=O)NC2CC(n3cnc4c(NC5CCN(CCOC6CCN(c7cccc8c7C(=O)N([C@H]7CCC(=O)NC7=O)C8=O)CC6)CC5)ncnc43)C2)n1 (some centres unmarked)	50%
O=C1CC[C@H](N2C(=O)c3ccc(N4CCC(CN5CCN(c6ccc(Nc7ncnc8c7ncn8C7CC(NC(=O)c8cccc(C(F)(F)F)n8)C7)cc6)CC5)CC4)cc3C2=O)C(=O)N1 (some centres unmarked)	0/0/0%
O=C(CNc1ccc2c(c1)C(=O)N(C1CCC(=O)NC1=O)C2=O)NC[C@H]1CC[C@H](CN2CCN(c3ccc(Nc4ncnc5c4ncn5[C@H]4C[C@@H](NC(=O)Cc5ccccc5)C4)cc3)CC2)CC1 (some centres unmarked)	40%

# input Would you kindly share the measured Enzyme degradation CDK9 (% remaining) @ 0.1 μM for Cc1cccc(C(=O)NC2CC(n3cnc4c(Nc5ccc(N6CCN(C7CC8(CCN(C(=O)COc9ccc([C@@H]%10CCC(=O)NC%10=O)cc9)CC8)C7)CC6)cc5)ncnc43)C2)n1 (some centres unmarked) ?
# output 10/10/10%

Recorded values, source patent US20260125382A1.
